- Tested on: Human immunodeficiency virus 1
- experimental-details: Anti-HIV-1 activity against mutant HIV-1 strain(188 Tyr-His) in CEM cells
- Type: functional, organism-based
- details: Human immunodeficiency virus 1, CCRF-CEM
Parameter EC50: see the listing below.
Give just the number in µM; leave the unit off.

Completed entries (count: 2):
[
  {
    "compound": "c1ccc2[nH]c(-c3cscn3)nc2c1",
    "EC50, µM": 4.16
  },
  {
    "compound": "Cc1cccc(N2C(=O)CSC2c2c(Cl)cccc2Cl)n1 (centres undefined)",
    "EC50, µM": 16.2
  }
]

# ---- query compound ----
Retrieve EC50 measured for O=C1CSC(c2c(F)cccc2F)N1c1cccc(Br)n1 (centres undefined) and print it.
1.02
